Tested on: 328373-195-R-J1-PDC complex spheroids, viability % test/control;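 note: spheroids exposed to the agents for 7 days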
assay_explanation: Anticancer human tumor 328373-195-R-J1-PDC patient-derived head and neck squamous carcinoma cell line growth inhibition [CLK]; active = viability on the fitted dose curve at most 10% of control; inactive = the rest
condition_parameters: second compound 1 µM; first compound 0.316 µM
Excerpt: A high-throughput screen of multi-cell type tumor spheroids was designed to identify active combinations of […] and targeted small molecules. Complex spheroids include a stromal component modeled by human endothelial cells (HUVEC) and fibroblasts modeled by human mesenchymal stem cells (MSCs). […] Compounds. […] If the clinical Cmax for an agent had not been determined, the highest concentration tested was 10 microM. […]
Outcome codes: active, inactive

- molecule: "COc1ccc([C@@H](O)c2cc(-c3ncnc4cc(N5CCOCC5)ccc34)c(F)cc2Cl)nn1 + CNC(=O)c1ccc(Nc2nc(OC3CCCC3)c3c(-c4ccc5nc(C)oc5c4)c[nH]c3n2)c(OC)c1"
  classification: "inactive"
- molecule: "CC(=O)O[C@H]1C(=O)[C@@]2(C)[C@H]([C@H](OC(=O)c3ccccc3)[C@]3(O)C[C@H](OC(=O)[C@H](O)[C@@H](NC(=O)c4ccccc4)c4ccccc4)C(C)=C1C3(C)C)[C@]1(OC(C)=O)CO[C@@H]1C[C@@H]2O + CN1CCN(c2cc(C(=O)Nc3cc4cc(-c5cnn(C)c5)ccc4cn3)ccn2)CC1"
  classification: "active"
- molecule: "C=CC(=O)N1CCN(c2nc(=O)n(-c3c(C)ccnc3C(C)C)c3nc(-c4c(O)cccc4F)c(F)cc23)C(C)C1 (stereo not given) + CNC(=O)c1ccc(Nc2nc(OC3CCCC3)c3c(-c4ccc5nc(C)oc5c4)c[nH]c3n2)c(OC)c1"
  classification: "inactive"
- molecule: "CC1(C)CCC(CN2CCN(c3ccc(C(=O)NS(=O)(=O)c4ccc(NCC5CCOCC5)c([N+](=O)[O-])c4)c(Oc4cnc5[nH]ccc5c4)c3)CC2)=C(c2ccc(Cl)cc2)C1 + CNC(=O)c1ccc(Nc2nc(OC3CCCC3)c3c(-c4ccc5nc(C)oc5c4)c[nH]c3n2)c(OC)c1"
  classification: "active"
- molecule: "COc1cccc2c1C(=O)c1c(O)c3c(c(O)c1C2=O)CC(O)(C(=O)CO)CC3OC1CC(N)C(O)C(C)O1 (stereo not given) + CN1CCN(c2cc(C(=O)Nc3cc4cc(-c5cnn(C)c5)ccc4cn3)ccn2)CC1"
  classification: "active"
- molecule: "COc1cccc2c1C(=O)c1c(O)c3c(c(O)c1C2=O)CC(O)(C(=O)CO)CC3OC1CC(N)C(O)C(C)O1 (stereo not given) + CNC(=O)c1ccc(Nc2nc(OC3CCCC3)c3c(-c4ccc5nc(C)oc5c4)c[nH]c3n2)c(OC)c1"
  classification: "active"
- molecule: "O=C(c1cc(Cc2n[nH]c(=O)c3ccccc23)ccc1F)N1CCN(C(=O)C2CC2)CC1 + CN1CCN(c2cc(C(=O)Nc3cc4cc(-c5cnn(C)c5)ccc4cn3)ccn2)CC1"
  classification: "active"
- molecule: "O=c1[nH]cc(F)c(=O)[nH]1 + CNC(=O)c1ccc(Nc2nc(OC3CCCC3)c3c(-c4ccc5nc(C)oc5c4)c[nH]c3n2)c(OC)c1"
  classification: "active"
- molecule: "CCc1c2c(nc3ccc(O)cc13)-c1cc3c(c(=O)n1C2)COC(=O)[C@]3(O)CC + CNC(=O)c1ccc(Nc2nc(OC3CCCC3)c3c(-c4ccc5nc(C)oc5c4)c[nH]c3n2)c(OC)c1"
  classification: "active"
- molecule: "Nc1ccccc1NC(=O)c1ccc(CNC(=O)OCc2cccnc2)cc1 + CN1CCN(c2cc(C(=O)Nc3cc4cc(-c5cnn(C)c5)ccc4cn3)ccn2)CC1"
  classification: "active"
- molecule: "COc1c(OCCCN2CCOCC2)ccc2c3n(c(=NC(=O)c4cnc(N)nc4)nc12)CCN3 + CN1CCN(c2cc(C(=O)Nc3cc4cc(-c5cnn(C)c5)ccc4cn3)ccn2)CC1"
  classification: "active"
- molecule: "CC(Nc1ccc2c(c1)OCCn1cc(N3C(=O)OCC3C(F)F)nc1-2)C(N)=O (stereo not given) + CN1CCN(c2cc(C(=O)Nc3cc4cc(-c5cnn(C)c5)ccc4cn3)ccn2)CC1"
  classification: "active"
- molecule: "Nc1ccn(C2OC(CO)C(O)C2(F)F)c(=O)n1 (stereo not given) + CNC(=O)c1ccc(Nc2nc(OC3CCCC3)c3c(-c4ccc5nc(C)oc5c4)c[nH]c3n2)c(OC)c1"
  classification: "active"
- molecule: "CCN1CCN(Cc2ccc(Nc3ncc(F)c(-c4cc(F)c5nc(C)n(C(C)C)c5c4)n3)nc2)CC1 + CNC(=O)c1ccc(Nc2nc(OC3CCCC3)c3c(-c4ccc5nc(C)oc5c4)c[nH]c3n2)c(OC)c1"
  classification: "inactive"
- molecule: "CCc1c2c(nc3ccc(O)cc13)-c1cc3c(c(=O)n1C2)COC(=O)[C@]3(O)CC + CN1CCN(c2cc(C(=O)Nc3cc4cc(-c5cnn(C)c5)ccc4cn3)ccn2)CC1"
  classification: "active"
- molecule: "CC(CO)NC(=O)c1cc(-c2ccc(Cl)cc2)nn(-c2cnn(C)c2)c1=O (stereo not given) + CN1CCN(c2cc(C(=O)Nc3cc4cc(-c5cnn(C)c5)ccc4cn3)ccn2)CC1"
  classification: "active"
- molecule: "O=C(c1cc(Cc2n[nH]c(=O)c3ccccc23)ccc1F)N1CCN(C(=O)C2CC2)CC1 + CNC(=O)c1ccc(Nc2nc(OC3CCCC3)c3c(-c4ccc5nc(C)oc5c4)c[nH]c3n2)c(OC)c1"
  classification: "inactive"
- molecule: "Nc1ccn(C2OC(CO)C(O)C2(F)F)c(=O)n1 (stereo not given) + CN1CCN(c2cc(C(=O)Nc3cc4cc(-c5cnn(C)c5)ccc4cn3)ccn2)CC1"
  classification: "active"
- molecule: "C#Cc1c(F)ccc2cc(O)cc(-c3ncc4c(N5CC6CCC(C5)N6)nc(OCC56CCCN5CC(F)C6)nc4c3F)c12 (stereo not given) + CN1CCN(c2cc(C(=O)Nc3cc4cc(-c5cnn(C)c5)ccc4cn3)ccn2)CC1"
  classification: "active"
- molecule: "C#Cc1c(F)ccc2cc(O)cc(-c3ncc4c(N5CC6CCC(C5)N6)nc(OCC56CCCN5CC(F)C6)nc4c3F)c12 (stereo not given) + CNC(=O)c1ccc(Nc2nc(OC3CCCC3)c3c(-c4ccc5nc(C)oc5c4)c[nH]c3n2)c(OC)c1"
  classification: "active"

Ref: PubChem BioAssay AID2060620
